Measured IC50 values are reported for all entries that follow.
Tested target: T1, integrin receptor α4β1 (human, UniProt P13612 34-1032; P05556 21-798)
T1 construct: whole, on cells; also called α4β1 extracellular matrix receptor; VLA 4
T1 sequence (P13612 34-1032, form in doubt, chain 1 of 2): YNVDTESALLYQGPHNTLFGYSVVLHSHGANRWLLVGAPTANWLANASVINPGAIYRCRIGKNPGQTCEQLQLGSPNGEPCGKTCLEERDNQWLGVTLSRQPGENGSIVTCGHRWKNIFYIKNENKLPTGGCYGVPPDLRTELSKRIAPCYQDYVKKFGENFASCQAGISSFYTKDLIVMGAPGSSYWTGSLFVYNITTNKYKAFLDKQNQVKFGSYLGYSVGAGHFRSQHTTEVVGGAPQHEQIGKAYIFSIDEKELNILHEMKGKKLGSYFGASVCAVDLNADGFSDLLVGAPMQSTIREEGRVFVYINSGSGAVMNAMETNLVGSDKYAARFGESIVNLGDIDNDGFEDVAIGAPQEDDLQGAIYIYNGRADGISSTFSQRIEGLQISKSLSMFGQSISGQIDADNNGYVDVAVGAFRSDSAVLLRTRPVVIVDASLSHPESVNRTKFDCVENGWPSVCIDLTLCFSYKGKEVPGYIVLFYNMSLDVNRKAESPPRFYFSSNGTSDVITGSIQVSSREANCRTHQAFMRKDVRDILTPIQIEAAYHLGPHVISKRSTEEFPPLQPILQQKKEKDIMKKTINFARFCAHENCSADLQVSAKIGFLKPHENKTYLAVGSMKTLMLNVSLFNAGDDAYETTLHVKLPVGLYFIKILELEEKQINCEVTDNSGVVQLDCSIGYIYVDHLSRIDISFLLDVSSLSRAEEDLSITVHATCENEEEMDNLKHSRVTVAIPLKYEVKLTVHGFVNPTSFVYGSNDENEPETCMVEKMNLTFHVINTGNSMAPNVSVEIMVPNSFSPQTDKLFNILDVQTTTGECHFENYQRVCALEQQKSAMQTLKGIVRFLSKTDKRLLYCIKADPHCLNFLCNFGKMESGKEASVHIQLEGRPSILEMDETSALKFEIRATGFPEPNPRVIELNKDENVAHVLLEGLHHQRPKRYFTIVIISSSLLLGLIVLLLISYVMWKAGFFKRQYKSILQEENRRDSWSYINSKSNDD
T1 sequence (P05556 21-798, form in doubt, chain 2 of 2): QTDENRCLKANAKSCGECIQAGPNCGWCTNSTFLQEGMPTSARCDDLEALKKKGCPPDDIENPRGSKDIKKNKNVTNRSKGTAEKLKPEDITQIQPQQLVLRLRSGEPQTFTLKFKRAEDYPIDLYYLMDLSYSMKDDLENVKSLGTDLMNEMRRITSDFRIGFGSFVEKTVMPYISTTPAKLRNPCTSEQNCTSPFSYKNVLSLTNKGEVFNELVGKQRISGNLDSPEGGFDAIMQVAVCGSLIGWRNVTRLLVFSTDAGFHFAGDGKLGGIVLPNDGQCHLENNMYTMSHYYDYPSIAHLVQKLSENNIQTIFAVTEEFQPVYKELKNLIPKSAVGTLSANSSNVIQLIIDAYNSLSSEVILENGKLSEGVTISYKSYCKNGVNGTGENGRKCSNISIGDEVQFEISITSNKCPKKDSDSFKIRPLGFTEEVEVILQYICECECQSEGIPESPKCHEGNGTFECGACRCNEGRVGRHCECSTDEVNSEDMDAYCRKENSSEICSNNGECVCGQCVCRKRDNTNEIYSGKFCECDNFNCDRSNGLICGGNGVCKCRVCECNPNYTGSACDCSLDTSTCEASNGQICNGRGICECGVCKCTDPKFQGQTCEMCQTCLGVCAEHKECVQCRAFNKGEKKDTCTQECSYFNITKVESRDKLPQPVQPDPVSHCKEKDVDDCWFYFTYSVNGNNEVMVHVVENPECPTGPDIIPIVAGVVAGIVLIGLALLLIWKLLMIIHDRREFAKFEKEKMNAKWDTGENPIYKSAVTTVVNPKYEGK
Measurement protocol: soluble peptide against 51Cr-Jurkat adhesion to plasma fibronectin (5 ug/ml coat); 50% inhibition point read from plot
Please reply with the bare figure in µM and do not write the unit itself.

Recorded results for 2 binders are shown here.
1. EILDV [EILDV peptide]; 660
2. GPEILDVPST (also called peptide 354) [GPEILDVPST peptide]; 450

Memo: LHGPEILDVPST (also called CS-1-B12) [B12 peptide] , reported IC50: 400

In plain terms, DELPQLVTLPHPNLHGPEILDVPST (Free peptide; also called peptide 344; synthetic CS-1) [CS-1 peptide] has a documented IC50 of 180
